Read-out: Interferon-gamma inducible Protein 10 (IP10), CXCL10 (gene 3627)
Assay: BSK_BE3C_IP10: BioMAP Diversity Plus: BE3C Assay for Interferon-gamma inducible Protein 10 (IP10) Biomarker Activity (AID 2283034)
Details: primary human bronchial epithelial cells; actives raise or lower the signal
Method: BSK_BE3C is a cell-based, multiplexed-readout assay that uses bronchial epithelial cell, a human lung primary cell, with measurements taken at 24 hours after chemical dosing in a 96-well plate.BSK_BE3C_IP10 is an assay component measured in the BSK_BE3C assay. It measures IP-10 antibody related to regulation of gene expression using ELISA technology.Data from the assay component BSK_BE3C_IP10 was analyzed into 1 assay endpoint. […]
Active and inactive are the calls of the source. The calls were made as follows: active = hit-call score of the fitted dose curve at least 0.9, where 1 is the maximum; inactive = score below 0.9.
Possible outcomes: active, inactive

[
  {
    "compound": "O=C(O)c1cccc(Oc2ccccc2)c1",
    "label value": "inactive"
  },
  {
    "compound": "CCOC(=O)CC(CC(=O)OCC)(OC(C)=O)C(=O)OCC",
    "label value": "inactive"
  },
  {
    "compound": "O=C1OC(=O)C2C3C=CC(C3)C12 (stereo not drawn)",
    "label value": "inactive"
  },
  {
    "compound": "CC(C)CC(C)(O)C#CC(C)(O)CC(C)C (stereo not drawn)",
    "label value": "inactive"
  },
  {
    "compound": "Cc1[nH]cnc1C[C@H]1CCc2c(C)c3ccccc3n2C1=O",
    "label value": "inactive"
  },
  {
    "compound": "CC(=O)c1ccc2c(c1)[C@H](NC(=O)c1ccc(F)cc1)[C@@H](O)C(C)(C)O2",
    "label value": "inactive"
  },
  {
    "compound": "Oc1ccc2c(c1)-c1ccccc1C2",
    "label value": "inactive"
  },
  {
    "compound": "CCCCC(CC)COC(=O)c1ccc(C(=O)OCC(CC)CCCC)cc1 (stereo not drawn)",
    "label value": "inactive"
  },
  {
    "compound": "C1=CCCC=CCCC=CCC1",
    "label value": "inactive"
  },
  {
    "compound": "COc1cccc(-c2ccc(/C=C\\CN3CCCCCC3)cc2Cl)c1",
    "label value": "active"
  },
  {
    "compound": "CC(=O)OCCC(C)C",
    "label value": "inactive"
  },
  {
    "compound": "O=c1n(CC2CO2)c(=O)n(CC2CO2)c(=O)n1CC1CO1 (stereo not drawn)",
    "label value": "inactive"
  },
  {
    "compound": "CCOC(=O)COc1ccc2c(c1)CC(NCC(O)c1cccc(Cl)c1)CC2 (stereo not drawn)",
    "label value": "active"
  }
]

* * *

Read-out: matrix metalloproteinase-10 (MMP10), MMP10 (gene 4319)
Experiment: LTEA_HepaRG_MMP10: Life Technologies and Expression Analysis (LTEA) Assay for matrix metalloproteinase-10 (MMP10) using HepaRG (AID 2283517)
Settings: mRNA level, 48 h; actives raise or lower the signal
Procedure: LTEA_HepaRG is a cell based, multiplexed-readout assay that uses HepaRG, a human liver cell line, with measurements taken at 48 hours after chemical dosing on a 96-well plate.LTEA_HepaRG_MMP10 is one of 102 assay component(s) measured in the LTEA HepaRG cell culture assay. It is a marker of Fibrosis.Data from the assay component LTEA_HepaRG_MMP10 was analyzed into 1 endpoint. […]
Calls of active or inactive are those of the source. Rule for the calls: active = hit-call score of the fitted dose curve at least 0.9, where 1 is the maximum; inactive = score below 0.9.
Possible outcomes: class 1 (active), class 0 (inactive)

[
  {
    "compound": "CN(C)c1ccc(Cc2ccc(N(C)C)cc2)cc1",
    "label value": "class 0"
  },
  {
    "compound": "COC(=O)CC(=O)OC",
    "label value": "class 0"
  },
  {
    "compound": "CCCCC(CC)COC(=O)CCCCCCCCC(=O)OCC(CC)CCCC (stereo not given)",
    "label value": "class 0"
  },
  {
    "compound": "CCOC(=O)c1ccc(C2CCC(NC[C@H](O)COc3ccc(O)c(NS(C)(=O)=O)c3)CC2)cc1 (stereo not given in full)",
    "label value": "class 0"
  },
  {
    "compound": "Cc1ccc(S(=O)(=O)O)cc1C",
    "label value": "class 0"
  },
  {
    "compound": "CC(=O)OC[C@H]1O[C@@](COC(C)=O)(O[C@H]2O[C@H](COC(C)=O)[C@@H](OC(C)=O)[C@H](OC(C)=O)[C@H]2OC(C)=O)[C@@H](OC(C)=O)[C@@H]1OC(C)=O",
    "label value": "class 0"
  },
  {
    "compound": "O=c1[nH]c2ccc(S(=O)CCN3CCC(Cc4ccc(F)cc4)CC3)cc2o1 (stereo not given)",
    "label value": "class 0"
  },
  {
    "compound": "Nc1cccc(N)c1",
    "label value": "class 0"
  },
  {
    "compound": "O=C1CCC(N2C(=O)c3ccccc3C2=O)C(=O)N1 (stereo not given)",
    "label value": "class 0"
  },
  {
    "compound": "CN(C)c1ccc(N=NS(=O)(=O)O)cc1",
    "label value": "class 0"
  },
  {
    "compound": "CCOC(=O)COc1ccc2c(c1)CC(NCC(O)c1cccc(Cl)c1)CC2 (stereo not given)",
    "label value": "class 0"
  },
  {
    "compound": "CC(O)CN(CCN(CC(C)O)CC(C)O)CC(C)O (stereo not given)",
    "label value": "class 0"
  },
  {
    "compound": "CC(=O)c1ccc2c(c1)[C@H](NC(=O)c1ccc(F)cc1)[C@@H](O)C(C)(C)O2",
    "label value": "class 0"
  },
  {
    "compound": "C1N2CN3CN1CN(C2)C3",
    "label value": "class 0"
  },
  {
    "compound": "Clc1nc(Cl)c(Cl)c(Cl)c1Cl",
    "label value": "class 0"
  },
  {
    "compound": "Fc1ccccc1[C@@H](F)COC1CCC(Nc2ncnc3[nH]ncc23)CC1 (stereo not given in full)",
    "label value": "class 1"
  },
  {
    "compound": "CC(C)c1cccc(C(C)C)c1N1C(=O)c2ccc(O)cc2C1=O",
    "label value": "class 1"
  },
  {
    "compound": "O=C1OC(=O)C2C3C=CC(C3)C12 (stereo not given)",
    "label value": "class 0"
  },
  {
    "compound": "C=CCCCCCCCCC(=O)O",
    "label value": "class 0"
  },
  {
    "compound": "O=C(O)CCN(C1(C(=O)NO)CCCC1)S(=O)(=O)c1ccc(Oc2ccc(F)cc2)cc1",
    "label value": "class 0"
  },
  {
    "compound": "CCn1nc(Cc2ccccc2)cc1C1CCN(C[C@H]2C[C@H](N(C)[C@@H](C(=O)O)C(C)C)C[C@@H]2c2cccc(F)c2)CC1",
    "label value": "class 0"
  },
  {
    "compound": "CC(C)=CCC/C(C)=C/CO",
    "label value": "class 0"
  },
  {
    "compound": "CCCN(C1CCN(C(=O)C2CCNCC2)CC1)[C@@H]1CCc2ccc(OC)cc2C1",
    "label value": "class 0"
  },
  {
    "compound": "CC[C@H](C)C(=O)O[C@H]1C[C@@H](C)C=C2C=C[C@H](C)[C@H](CC[C@@H]3C[C@@H](O)CC(=O)O3)[C@H]21",
    "label value": "class 0"
  },
  {
    "compound": "CC1=CC(=O)CC(C)(C)C1",
    "label value": "class 0"
  },
  {
    "compound": "CC(C)=CCC/C(C)=C\\CO",
    "label value": "class 0"
  },
  {
    "compound": "Cc1ccc(O)cc1",
    "label value": "class 0"
  },
  {
    "compound": "CCCCCCCCO",
    "label value": "class 0"
  },
  {
    "compound": "CCCC(=O)OCC",
    "label value": "class 0"
  },
  {
    "compound": "COC(=O)c1c(Cl)c(Cl)c(C(=O)OC)c(Cl)c1Cl",
    "label value": "class 0"
  },
  {
    "compound": "Cc1c(-c2cccnc2)c2ccccc2n1CCCCC(=O)O",
    "label value": "class 0"
  },
  {
    "compound": "CC(C)CC(C)(O)C#CC(C)(O)CC(C)C (stereo not given)",
    "label value": "class 0"
  },
  {
    "compound": "CC(C)=CCCC(C)CCO (stereo not given)",
    "label value": "class 0"
  },
  {
    "compound": "O=C1CCCCCN1",
    "label value": "class 0"
  },
  {
    "compound": "CCNc1ccccc1",
    "label value": "class 0"
  }
]
